Biological target: PPIA (Homo sapiens)
Construct: Full length PPIA (residues 1-165) with an N-terminal 6×his-yBBR-TEV tag; 6×his-yBBR-TEV (N); made in house; host or cells: E. coli BL21 (DE3) CodonPlus RIPL
Sequence (P62937 whole entry, the tested form may be a part): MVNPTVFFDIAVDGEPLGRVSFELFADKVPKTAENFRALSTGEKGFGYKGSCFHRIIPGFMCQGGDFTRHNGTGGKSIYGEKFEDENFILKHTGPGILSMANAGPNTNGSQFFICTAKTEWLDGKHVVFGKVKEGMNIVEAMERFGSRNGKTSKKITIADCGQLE
Test: Phage Library Screening with NGS, PPIA
Format: binding
Conditions: target concentration 1000, first column
Bridge positions count the residues as written; N and C are the ends.
Please map values of phage screen counts, Target Concentration 1000 to classes as shown: bin 1 = under 20, bin 2 = from 20 up to 50, bin 3 = 50 and over

sequence_code=DPARYSCHVAAYECILN test_target="PPIA (Homo sapiens)" qualitative_label="bin 2"
sequence_code=PNCHVEAWYCI test_target="PPIA (Homo sapiens)" qualitative_label="bin 1"
sequence_code="PDCHIRAYVCH (Ac-PDCHIRAYVCH-NH2; bridge 3-10; also: Cys-Cys staple, linker not named)" test_target="PPIA (Homo sapiens)" qualitative_label="bin 1"
sequence_code=PNCHVEAYFCM test_target="PPIA (Homo sapiens)" qualitative_label="bin 3"
sequence_code=PDCHIASWFCS test_target="PPIA (Homo sapiens)" qualitative_label="bin 2"
sequence_code=DPAQLNCHVAAFFCFQS test_target="PPIA (Homo sapiens)" qualitative_label="bin 3"
sequence_code=PFCHIEAYYCW test_target="PPIA (Homo sapiens)" qualitative_label="bin 2"
sequence_code=PECHVEAYFCE test_target="PPIA (Homo sapiens)" qualitative_label="bin 2"
sequence_code=DPARAACHVAAYWCYHQ test_target="PPIA (Homo sapiens)" qualitative_label="bin 1"
sequence_code=PTCHIHAYHCY test_target="PPIA (Homo sapiens)" qualitative_label="bin 2"
sequence_code=DPAAHDCHIAAYWCLNY test_target="PPIA (Homo sapiens)" qualitative_label="bin 3"
sequence_code=PDCHVAAYICY test_target="PPIA (Homo sapiens)" qualitative_label="bin 3"
sequence_code=PTCHVQAWYCW test_target="PPIA (Homo sapiens)" qualitative_label="bin 1"
sequence_code=DPAAFSCHVAAWQCHTL test_target="PPIA (Homo sapiens)" qualitative_label="bin 3"
sequence_code=DPASYDCHVAAYFCNFA test_target="PPIA (Homo sapiens)" qualitative_label="bin 3"
sequence_code=PTCHIDAWVCY test_target="PPIA (Homo sapiens)" qualitative_label="bin 1"
sequence_code=DPARADCRVAAYWCYHQ test_target="PPIA (Homo sapiens)" qualitative_label="bin 1"

* * *

Biological target: RNF31 PUB domain (Homo sapiens, UniProt Q96EP0)
Construct: MBP-TEV (N, cleaved yes); made in house; host or cells: E. coli BL21 (DE3) pLysS
Sequence (Q96EP0 1-179): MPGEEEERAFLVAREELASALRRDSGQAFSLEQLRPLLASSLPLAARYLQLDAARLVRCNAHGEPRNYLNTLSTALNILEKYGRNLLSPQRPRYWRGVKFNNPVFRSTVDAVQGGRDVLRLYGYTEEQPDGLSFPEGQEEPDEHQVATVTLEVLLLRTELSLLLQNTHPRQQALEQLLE
Test: Phage Library Screening with NGS, RNF31 PUB domain
Type: binding
Conditions: RNF31 PUB domain clusters C41-C45; target concentration 1000, first column
Bridge positions count the residues as written; N and C are the ends. Ends that are not written are not given here.
Please note: T applies when Phage library screen NGS readout, Target Concentration 1000 is 7 or greater, and F applies otherwise.

sequence_code=DPAVVDCWDAAVQCTYY qualitative_label=T
sequence_code=DPAEEYCLEAAILCTYD qualitative_label=T
sequence_code=DPAYDLCLNAAVACTYV qualitative_label=T
sequence_code=DPALEICWDAAIQCSYV qualitative_label=T
sequence_code=DPASHMCLEAAVMCTYD qualitative_label=T
sequence_code=DPAADQCDIAAFVCSTY qualitative_label=T
sequence_code=DPAWQECVIAALVCDTY qualitative_label=T
sequence_code=DPAWLDCIYAAYDCVTD qualitative_label=F
sequence_code="DPAMIDCFLAAQVCATY (not fully specified; cysteine pairing not given here)" qualitative_label=F
sequence_code=DPAQEACWDAAIMCTYR qualitative_label=T
sequence_code=DPAIDACYDAAVMCTYV qualitative_label=T
sequence_code=DPAIRECMLAALVCSTY qualitative_label=T
sequence_code=DPAYWDCMYAAFYCDDI qualitative_label=F
sequence_code=DPADWDCMYAAQDCFED qualitative_label=T
sequence_code=DPAYDYCLYAAYDCTQT qualitative_label=T
sequence_code=DPAYSLCISAAVECTYY qualitative_label=F
sequence_code=DPAYDWCLYAAYQCDQN qualitative_label=T
sequence_code=DPAYTLCSWAAMYCDSM qualitative_label=F
sequence_code=DPAWEHCLYAAYDCTHE qualitative_label=T
sequence_code=DPARRECWDAAILCTYY qualitative_label=T
sequence_code=DPAWWNCLYAADECWSW qualitative_label=T
sequence_code=DPALSHCTVAAMVCSTY qualitative_label=T
sequence_code=DPAWDYCMYAAYDCNHS qualitative_label=T
sequence_code=DPAHTWCMYAAFDCFES qualitative_label=T
sequence_code="DPAIVQCAWAALYCDMQ (Ac-DPAIVQCAWAALYCDMQ-NH2; bridge 7-14; also: Cys-Cys staple, linker not named)" qualitative_label=T
sequence_code=DPAFQFCVEAAVACSYY qualitative_label=T
sequence_code=DPAHDWCLYAAYDCRVY qualitative_label=T
sequence_code=DPAEDWCMYAAWDCQME qualitative_label=T
sequence_code=DPAWMDCLYAAYDCQHM qualitative_label=T
sequence_code=DPAYDYCLYAAQDCVWW qualitative_label=F
sequence_code=DPALRDCLDAAIMCTYT qualitative_label=F
sequence_code=DPAYEDCADAAMYCDMD qualitative_label=T
sequence_code=DPAMEWCWDAAVFCTYS qualitative_label=T
sequence_code=DPAFAQCEVAAMVCTTY qualitative_label=F
sequence_code=DPAQEECFEAAVFCSYY qualitative_label=T
sequence_code=DPAYDWCMYAAHECVDQ qualitative_label=F
sequence_code=DPATWWCLYAAEDCVNI qualitative_label=F
sequence_code=DPAFWECMYAASDCDAS qualitative_label=F
sequence_code=DPAYWHCLYAAASCDDI qualitative_label=T
sequence_code=DPAFTDCQLAAAVCMTY qualitative_label=T
sequence_code=DPAWEWCLYAAAECIED qualitative_label=T
sequence_code=DPAQHECIYAAWDCDML qualitative_label=F
sequence_code=DPAEQFCLYAAYDCYSE qualitative_label=T
sequence_code=DPAFMDCVFAAAVCATY qualitative_label=T
sequence_code=DPAWWSCMYAAWTCDDT qualitative_label=T
sequence_code=DPAIQECYLAAQVCTTY qualitative_label=T
sequence_code=DPAYWDCLYAAWSCDIL qualitative_label=T
sequence_code=DPAQMECIDAAIMCSYT qualitative_label=F
sequence_code=DPALVTCTWAAIYCDDF qualitative_label=F
sequence_code=DPAWESCMYAAYDCDNE qualitative_label=T
sequence_code=DPAEWDCLYAAFDCFAN qualitative_label=T
sequence_code=DPAFDWCLYAADDCAET qualitative_label=T
sequence_code=DPAYYTCDWAAIYCDYH qualitative_label=F
sequence_code=DPAQDQCISAAVLCTYT qualitative_label=T
sequence_code=DPAFHDCQFAAAVCSTY qualitative_label=T
sequence_code=DPAMQDCQLAALVCTTY qualitative_label=F
sequence_code=DPAADDCEWAALYCSFH qualitative_label=F
sequence_code=DPAAEDCHIAAMVCMTY qualitative_label=T
sequence_code=DPAIQECLLAAATCWTY qualitative_label=T
sequence_code=DPAQYQCDIAAQVCSTY qualitative_label=T

* * *

The entries below are paired with their reported Phage library screen NGS readout, Target Concentration 10.
Biological target: RNF31 PUB domain (Homo sapiens)
Construct: MBP-TEV (N, cleaved yes); made in house; host or cells: E. coli BL21 (DE3) pLysS
Sequence (Q96EP0 1-179): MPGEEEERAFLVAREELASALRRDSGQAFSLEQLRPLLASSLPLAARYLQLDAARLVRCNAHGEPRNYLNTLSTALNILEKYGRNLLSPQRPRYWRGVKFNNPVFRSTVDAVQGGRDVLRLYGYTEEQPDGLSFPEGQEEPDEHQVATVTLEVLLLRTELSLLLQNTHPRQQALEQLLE
Test: Phage Library Screening with NGS, RNF31 PUB domain
Type: binding
Settings: RNF31 PUB domain clusters C41-C45; target concentration 10
Ends that are not written are not given here.
quantity.measured: Phage library screen NGS readout, Target Concentration 10

sequence_code="DPARDWCLYAAYDCYTA (Ac-DPARDWCLYAAYDCYTA-NH2; not fully specified (bridges); cysteine pairing not given here)" value=0
sequence_code=DPADWDCMYAAQDCFED value=0
sequence_code="DPAMIDCFLAAQVCATY (not fully specified; cysteine pairing not given here)" value=0
sequence_code=DPAWWSCMYAAWTCDDT value=1
sequence_code=DPAQMECIDAAIMCSYT value=0
sequence_code=DPAFTDCQLAAAVCMTY value=0
sequence_code=DPAYDWCMYAAYNCVED value=2
sequence_code=DPAADQCDIAAFVCSTY value=0
sequence_code=DPALSHCTVAAMVCSTY value=1
sequence_code=DPAWTDCDWAALYCEFQ value=1
sequence_code=DPAYRDCDWAALYCDDF value=0
sequence_code=DPAQDQCISAAVLCTYT value=0
sequence_code=DPAFWACLYAAEECVVD value=0
sequence_code=DPAWESCMYAAYDCDNE value=0
